# Assay Summary: Cmax value after administration of 20 mg/Kg oral dose in rat
# Type: ADME, organism-based
# Design: dose 20 mg/Kg, route oral
# Run Parameters: in vivo
Endpoint Label: Cmax (ng/mL)
Numbers only here, please. The scale is ng/mL.

O=C(O)c1cn(C2CC2)c2cc(N3CCNCC3)c(F)cc2c1=O [CIPROFLOXACIN] ... 900

Query molecule follows.
Quick one: Cmax for CO/N=C1\CN(c2c(F)cc3c(=O)c(C(=O)O)cn(C4CC4)c3c2F)CC1N (configuration not stated) ?
22800

====

# Test system: Staphylococcus aureus
# Assay Summary: In vitro antimicrobial activity against Staphylococcus aureus 241
# Type: functional
# MIC per entry
Form entry: value (µg/mL) — number only.

CNC1CN(c2nc3c(cc2F)c(=O)c(C(=O)O)cn3C2CC2)C/C1=N\OC (stereo not given) ... 16
CO/N=C1\CN(c2nc3c(cc2F)c(=O)c(C(=O)O)cn3C2CC2)CC1N (stereo not given) ... 8
CO/N=C1\CN(c2c(F)cc3c(=O)c(C(=O)O)cn(C4CC4)c3c2F)CC1N (stereo not given) ... 2
NC1CN(c2c(F)cc3c(=O)c(C(=O)O)cn(C4CC4)c3c2F)C/C1=N\OCCF (stereo not given) ... 2

Turning now to a further compound:
Please look up its MIC: C=CCO/N=C1\CN(c2c(F)cc3c(=O)c(C(=O)O)cn(C4CC4)c3c2F)CC1N (stereo not given)
2

Data provenance: ChEMBL document CHEMBL1130731
